target: T1, FGFR1c and the cofactor β-Klotho (Homo sapiens, UniProt P11362+Q86Z14); test: dual-luciferase reporter gene assay in iLite FGF21 assay ready cells; type: cell-based; conditions: Example 6, four-parameter fitting
T1 construct: host or cells: iLite FGF21 assay ready cells (genetically engineered reporter gene cell line)
T1 sequence (P11362 22-822): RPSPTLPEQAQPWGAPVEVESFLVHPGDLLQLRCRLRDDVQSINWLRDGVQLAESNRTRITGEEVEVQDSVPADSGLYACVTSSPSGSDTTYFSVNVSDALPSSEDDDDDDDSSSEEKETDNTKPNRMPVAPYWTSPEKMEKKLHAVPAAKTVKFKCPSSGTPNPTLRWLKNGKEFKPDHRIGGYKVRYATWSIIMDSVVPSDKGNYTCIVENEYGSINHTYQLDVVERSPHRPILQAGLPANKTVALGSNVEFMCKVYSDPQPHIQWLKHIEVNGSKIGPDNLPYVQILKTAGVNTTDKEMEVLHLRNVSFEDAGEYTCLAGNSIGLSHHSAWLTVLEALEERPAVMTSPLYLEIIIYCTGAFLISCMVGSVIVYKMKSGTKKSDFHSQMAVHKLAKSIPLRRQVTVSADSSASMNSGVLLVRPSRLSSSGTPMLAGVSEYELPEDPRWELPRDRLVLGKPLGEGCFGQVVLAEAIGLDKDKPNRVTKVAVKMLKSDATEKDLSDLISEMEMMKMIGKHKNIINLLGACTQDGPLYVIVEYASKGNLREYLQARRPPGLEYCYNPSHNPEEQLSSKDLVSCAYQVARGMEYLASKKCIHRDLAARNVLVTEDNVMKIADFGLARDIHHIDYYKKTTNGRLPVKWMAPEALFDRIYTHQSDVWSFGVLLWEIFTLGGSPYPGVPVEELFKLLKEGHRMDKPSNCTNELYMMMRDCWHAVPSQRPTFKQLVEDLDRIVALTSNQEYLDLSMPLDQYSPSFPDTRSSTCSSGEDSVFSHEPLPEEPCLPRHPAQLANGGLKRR
T1 sequence (Q86Z14 whole entry): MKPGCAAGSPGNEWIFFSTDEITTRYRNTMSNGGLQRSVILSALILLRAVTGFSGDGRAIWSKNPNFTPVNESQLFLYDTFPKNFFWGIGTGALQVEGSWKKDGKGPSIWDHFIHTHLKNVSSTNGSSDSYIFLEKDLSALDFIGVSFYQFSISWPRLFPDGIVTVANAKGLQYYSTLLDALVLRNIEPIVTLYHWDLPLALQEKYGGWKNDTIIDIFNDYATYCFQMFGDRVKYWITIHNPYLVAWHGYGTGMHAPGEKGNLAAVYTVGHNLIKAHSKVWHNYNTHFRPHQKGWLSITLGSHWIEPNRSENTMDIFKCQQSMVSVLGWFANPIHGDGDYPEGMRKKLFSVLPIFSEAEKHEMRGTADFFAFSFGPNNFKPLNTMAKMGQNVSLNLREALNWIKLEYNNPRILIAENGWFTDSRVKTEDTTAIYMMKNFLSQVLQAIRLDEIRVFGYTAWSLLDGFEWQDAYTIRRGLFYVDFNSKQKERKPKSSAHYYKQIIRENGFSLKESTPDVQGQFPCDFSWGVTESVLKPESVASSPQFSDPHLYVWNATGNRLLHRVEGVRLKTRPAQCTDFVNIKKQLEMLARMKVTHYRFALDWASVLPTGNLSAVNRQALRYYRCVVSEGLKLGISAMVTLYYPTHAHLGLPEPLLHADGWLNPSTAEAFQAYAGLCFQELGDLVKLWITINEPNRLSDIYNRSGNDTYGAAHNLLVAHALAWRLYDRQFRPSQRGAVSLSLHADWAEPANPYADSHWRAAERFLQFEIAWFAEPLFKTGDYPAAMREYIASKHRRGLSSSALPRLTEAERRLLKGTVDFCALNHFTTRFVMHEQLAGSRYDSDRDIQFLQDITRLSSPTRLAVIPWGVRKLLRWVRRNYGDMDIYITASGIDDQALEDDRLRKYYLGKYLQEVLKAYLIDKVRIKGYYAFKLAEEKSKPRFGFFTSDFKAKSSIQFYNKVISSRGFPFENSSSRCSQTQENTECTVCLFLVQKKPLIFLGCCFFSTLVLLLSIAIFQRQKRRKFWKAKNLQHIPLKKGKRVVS
Assay readout: EC50 (nM)
Expressed in nM, but write only the number.

Query :: Fill in: EC50 of Compound 5.5: FGF21H125C mutant (SEQ NO: 9) modified by the albumin-binding agent of Example 2.1 (conjugate, albumin-binding agent of Example 2.1) HPIPDSSPLLQFGGQVRQRYLYTDDAQQTEAHLEIREDGTVGGAADQSPESLLQLKALKPGVIQILGVKTSRFLCQRPDGALYGSLHFDPEACSFRERLLEDGYNVYQSEAHGLPLHLPGNKSPCRDPAPRGPARFLPLPGLPPAPPEPPGILAPQPPDVGSSDPLSMVGGSQGRSPSYES is ___
Result :: 0.52
